- conditionSet: 288.15 K; 101 kPa; Liquid; Vibrating tube method
quantityKind: mass density (kg/m3)
Give a bare numeral; the unit kg/m3 is implied.

Below, each entry is followed by its recorded mass density result.
{"molecule": "CC(C)O", "endpointUnit": "kg/m3", "mass density": 790.01}
{"molecule": "CCCO", "endpointUnit": "kg/m3", "mass density": 808.48}
{"molecule": "CO", "endpointUnit": "kg/m3", "mass density": 796.46}
{"molecule": "CCCCCO", "endpointUnit": "kg/m3", "mass density": 818.25}
{"molecule": "CCC(C)O (stereo unspecified)", "endpointUnit": "kg/m3", "mass density": 810.96}

Prompt: Bench note: what mass density did CCO show?
Completion: 794.04
